Source listed as paper PMC5071857.

Below is a list of entries, each paired with its recorded log10 of IC50 value.
# Measured on: AtPDF1B (Arabidopsis thaliana, UniProt Q9FUZ2)
# Sequence (Q9FUZ2 83-273): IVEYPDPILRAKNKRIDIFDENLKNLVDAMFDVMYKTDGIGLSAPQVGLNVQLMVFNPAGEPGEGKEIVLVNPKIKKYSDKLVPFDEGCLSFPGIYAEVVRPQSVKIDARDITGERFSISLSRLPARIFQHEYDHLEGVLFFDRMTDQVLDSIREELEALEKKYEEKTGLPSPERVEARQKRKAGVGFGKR
Property measured: log10 of IC50 (log10 of the value in nM)

Molecule | Assay result
CCCCC(CC(=O)NO)c1nc(Cc2ccc(C)cc2)no1 (centres unmarked) | 2.66
CCCC[C@H](CC(=O)NO)c1nc(Cc2coc3ccccc23)no1 | 2.48
CCCC[C@H](CC(=O)NO)c1nc(Cc2ccc(C(=O)O)cc2)no1 | 3.91
O=C(Cc1cn(Cc2ccccc2)c2ccc(Br)cc12)NO | 2.60
CCCC[C@H](CC(=O)NO)c1nc(Cc2ccc(OC(F)(F)F)cc2)no1 | 2.70

====

# Tested on: E. coli AG100A (AcrAB- derivative)
# Method notes: MIC by microdilution, E. coli AG100A
# Format: cell-based
# Details: Escherichia coli, 18 h, read-out: MIC AG100A

Molecule | Measured on | MIC
CCCCC(CC(=O)NO)c1nc(Cc2ccc(F)cc2)no1 (stereo not shown) | E. coli AG100A (AcrAB- derivative) | > 64 mg/L
CCCCC(CC(=O)NO)c1nc(Cc2ccc(C(F)(F)F)cc2)no1 (stereo not shown) | E. coli AG100A (AcrAB- derivative) | > 64 mg/L
CCCCC(CC(=O)NO)c1nc(Cc2nc3ccccc3s2)no1 (stereo not shown) | E. coli AG100A (AcrAB- derivative) | 64 mg/L
O=C(C[C@@H](CC1CCCC1)c1nc(Cc2ccc3c(c2)OCO3)no1)NO | E. coli AG100A (AcrAB- derivative) | 16 mg/L
CCCCC(CC(=O)NO)c1nc(Cc2ccc3c(c2)OCO3)no1 (stereo not shown) | E. coli AG100A (AcrAB- derivative) | 64 mg/L
O=C(Cn1cc(Cc2ccccc2)c2cc(Br)ccc21)NO | E. coli AG100A (AcrAB- derivative) | > 64 mg/L
CCCCC(CC(=O)NO)c1nc(Cc2ccc(C)cc2)no1 (stereo not shown) | E. coli AG100A (AcrAB- derivative) | 64 mg/L
CCCC[C@H](CC(=O)NO)c1nc(C(=O)N[C@H](C(=O)OC)C(C)C)co1 | E. coli AG100A (AcrAB- derivative) | > 64 mg/L
CCCCC[C@H](CC(=O)NO)C(=O)N[C@H](C(=O)N1CCC[C@H]1CO)C(C)C [Actinonin, actinonin, reference compound] | E. coli AG100A (AcrAB- derivative) | 1 mg/L
CCCCC(CC(=O)NO)c1nc(C(=O)OCC)co1 (stereo not shown) | E. coli AG100A (AcrAB- derivative) | > 64 mg/L
CCCC[C@H](CC(=O)NO)c1nc(Cc2coc3ccccc23)no1 | E. coli AG100A (AcrAB- derivative) | 32 mg/L
CCCCC(CC(=O)NO)c1nc(-c2ccccc2)no1 (stereo not shown) | E. coli AG100A (AcrAB- derivative) | > 64 mg/L
CCCC[C@H](CC(=O)NO)c1nc(C(=O)N[C@H](C(N)=O)C(C)C)co1 | E. coli AG100A (AcrAB- derivative) | > 64 mg/L
CCCCC(CC(=O)NO)c1nc(C(N)=O)co1 (stereo not shown) | E. coli AG100A (AcrAB- derivative) | > 64 mg/L
CCCCC(CC(=O)NO)c1nc(Cc2ccc(C(=O)OC)cc2)no1 (stereo not shown) | E. coli AG100A (AcrAB- derivative) | > 64 mg/L
O=C(Cc1c[nH]c2ccc(Br)cc12)NO | E. coli AG100A (AcrAB- derivative) | 64 mg/L
CCCCC(CC(=O)NO)c1nc(-c2ccc(C(F)(F)F)cc2)no1 (stereo not shown) | E. coli AG100A (AcrAB- derivative) | 32 mg/L
O=C(C[C@@H](CC1CCCC1)c1nc(Cc2coc3ccccc23)no1)NO | E. coli AG100A (AcrAB- derivative) | 16 mg/L
CCCC[C@H](CC(=O)NO)c1nc(-c2ccccc2)co1 | E. coli AG100A (AcrAB- derivative) | > 64 mg/L
CCCCC(CC(=O)NO)c1nc(-c2ccc([N+](=O)[O-])cc2)no1 (stereo not shown) | E. coli AG100A (AcrAB- derivative) | > 64 mg/L
CCCC[C@H](CC(=O)NO)c1nc(Cc2ccc(OC(F)(F)F)cc2)no1 | E. coli AG100A (AcrAB- derivative) | 32 mg/L
CCCCC(CC(=O)NO)c1nc(Cc2ccc(-c3ccccc3)cc2)no1 (stereo not shown) | E. coli AG100A (AcrAB- derivative) | > 64 mg/L
